tested on: OV90; test: Primary qHTS to identify gynecologic anti-cancer compounds using libraries of approved drugs and bioactive compounds (AID 1345084); conditions: Gynecologic cancer cell panel viability, ATPlite luminescence, 48 h; series mostly up to 57.5 µM; also: % is scaled to controls: 0 for no effect and ±100 for the full control effect; nearly all actives have a fitted effect of over 55% in size
Inconclusive results are not listed. Active and inactive are the calls of the source. Calls follow the shape of the dose curve; as a rule, active = well fitted cell-killing curve with a large enough effect; inconclusive = small, poorly fitted or top-dose-only effect, or effect the other way; inactive = flat fitted curve, though single readings scatter. Where a SMILES comes first, the peptide text is derived from it. The star is where a group is joined. Cbz = O=C(OCc1ccccc1)*; CH2F = FC*

{"Molecule": "CC(=O)c1c(C)cccc1O[C@@H]1O[C@H](CO)[C@@H](O)[C@H](O)[C@H]1O", "activity change, negative = cytotoxicity": "inactive"}
{"Molecule": "O=C(NC1CCN(CC(F)(F)F)CC1)c1ccc(-c2cccc(F)c2)nc1", "activity change, negative = cytotoxicity": "inactive"}
{"Molecule": "C[C@@H]1O[C@@H](OC(=O)Cc2ccccc2)[C@H](O)[C@H](O)[C@H]1O", "activity change, negative = cytotoxicity": "inactive"}
{"Molecule": "O=C(OC[C@H]1O[C@H](O[C@]2(CO)O[C@H](CO)[C@@H](O)[C@@H]2O)[C@H](O)[C@@H](O)[C@@H]1O)c1ccc(O)cc1", "activity change, negative = cytotoxicity": "inactive"}
{"Molecule": "C/C=C/C=C/C=C/C(=O)N(C)C(C(=O)NC(C)C(=O)N1CCCC1C(N)=O)C(C)C (stereo unspecified)", "activity change, negative = cytotoxicity": "inactive"}
{"Molecule": "Cc1nc(-c2cccnc2)sc1C(=O)Nc1ccccc1-c1cn2c(CN3CCOCC3)csc2n1", "activity change, negative = cytotoxicity": "inactive"}
{"Molecule": "Cc1cc(-c2nncc3c(C(C)(C)C)c(OCc4ncnn4C)nn23)no1", "activity change, negative = cytotoxicity": "inactive"}
{"Molecule": "N#CN1CCC[C@@H](n2nc(-c3ccc(Oc4ccc(F)cc4F)cc3)c(C(N)=O)c2N)C1", "activity change, negative = cytotoxicity": "inactive"}
{"Molecule": "COc1cc(C(CO)C(OC2OC(CO)C(O)C(O)C2O)c2ccc(O)c(OC)c2)ccc1O (stereo unspecified)", "activity change, negative = cytotoxicity": "inactive"}
{"Molecule": "Cc1ccccc1NC(=O)Nc1ccc(CN2C(=O)N([C@@H](CC(C)C)C(=O)N[C@@H](CC(=O)O)c3ccccc3)C(=O)C2(C)C)cc1", "activity change, negative = cytotoxicity": "inactive"}
{"Molecule": "CC1=CCC(O)C2(C)CCC3C(C)C(=O)OC3C12 (stereo unspecified)", "activity change, negative = cytotoxicity": "inactive"}
{"Molecule": "C=C1CC[C@@H]2[C@](C)(CO)[C@H](O[C@@H]3O[C@H](CO)[C@@H](O)[C@H](O)[C@H]3O)CC[C@@]2(C)[C@@H]1C/C=C1/C(=O)OC[C@H]1O", "activity change, negative = cytotoxicity": "inactive"}
{"Molecule": "Nc1c(-c2ccccc2)nc(Cl)c2c(O)n[nH]c(=O)c12", "activity change, negative = cytotoxicity": "inactive"}
{"Molecule": "COc1ccc(C(=O)OC2C3C=COC(OC4OC(CO)C(O)C(O)C4O)C3C3(CO)OC23)cc1OC (stereo unspecified)", "activity change, negative = cytotoxicity": "inactive"}
{"Molecule": "Cc1ncc(Cl)cc1NCc1ccc(C(=O)NC(CC2CCCC2)C(=O)NC2CC2)s1 (stereo unspecified)", "activity change, negative = cytotoxicity": "inactive"}
{"Molecule": "OC[C@@]1(O)CO[C@H](OC[C@H]2O[C@@H](OCCc3ccccc3)[C@H](O)[C@@H](O)[C@@H]2O)[C@@H]1O", "activity change, negative = cytotoxicity": "inactive"}
{"Molecule": "O=C(NC1Cc2ccccc2N(C[C@@H](O)CO)C1=O)c1cc2cc(Cl)sc2[nH]1 (stereo partly specified)", "activity change, negative = cytotoxicity": "inactive"}
{"Molecule": "CC1OC(O[C@H]2CC[C@@]3(C)C(CC[C@]4(C)C3CC=C3C5CC(C)(C)CC[C@]5(C(=O)OC5OC(CO)C(OC6OCC(OC7OCC(O)C(O)C7O)C(O)C6O)C(O)C5O)CC[C@]34C)C2(C)C)C(O)C(O)C1OC1OC(CO)C(O)C(OC2OC(CO)C(O)C(O)C2O)C1O (stereo partly specified)", "activity change, negative = cytotoxicity": "-14.5% [at 6.55 µM] (inactive)"}
{"Molecule": "COC(=O)C1=CO[C@@H](O[C@@H]2O[C@H](CO)[C@@H](O)[C@H](O)[C@H]2O)[C@@H]2C(C)CC(=O)[C@]12O (stereo partly specified)", "activity change, negative = cytotoxicity": "inactive"}
{"Molecule": "CC1=CC23[C@H](C=C(C(=O)O)[C@@H]2COC(=O)[C@]3(O)CO)[C@@H]1C (stereo partly specified)", "activity change, negative = cytotoxicity": "inactive"}
{"Molecule": "C=C[C@H]1[C@H](O[C@@H]2O[C@H](CO)[C@@H](O)[C@H](O)[C@H]2O)OC=C2C(=O)N3Cc4c([nH]c5ccccc5c4=O)[C@@H]3C[C@H]21", "activity change, negative = cytotoxicity": "inactive"}
{"Molecule": "CC(NC(=O)c1ccccc1N)C(=O)O (stereo unspecified)", "activity change, negative = cytotoxicity": "inactive"}
{"Molecule": "C[C@@H]1O[C@@H](OC2C(O[C@H]3[C@H](O[C@H]4CC[C@@]5(C)C(CC[C@]6(C)C5CC=C5C7CC(C)(C)CC(O)[C@]7(C)CC[C@]56C)C4(C)C)O[C@H](C(=O)O)[C@@H](O)[C@@H]3O)OC(CO)C(O)C2O)[C@H](O)[C@H](O)[C@H]1O (stereo partly specified)", "activity change, negative = cytotoxicity": "7.68% [at 11.6 µM] (inactive)"}
{"Molecule": "C/C=C/C=C/C(O)=C1/C(=O)[C@]2(C)C(=O)[C@@](C)(O)[C@H]1[C@H]([C@@]1(C)OC(=O)C(C)=C1O)[C@H]2C(=O)CC/C=C/C", "activity change, negative = cytotoxicity": "inactive"}
{"Molecule": "COCC1OC(n2cnc3c(=O)[nH]cnc32)C(O)C1O (stereo unspecified)", "activity change, negative = cytotoxicity": "inactive"}
{"Molecule": "CC(C)C1(O)NC(=O)C(CC2(O)c3ccccc3N3C(=O)C(C)(C)NC32)n2c1nc1ccccc1c2=O (stereo unspecified)", "activity change, negative = cytotoxicity": "inactive"}
{"Molecule": "Cc1ccc(-c2c(-c3nn(C)c4ncnc(N5CC[C@H](N6CCCCC6)C5)c34)cnn2C)cc1", "activity change, negative = cytotoxicity": "inactive"}
{"Molecule": "CCC(C)/C=C(C)/C=C/C1=CC2=C(Cl)C(=O)C(C)(OC(C)=O)C(=O)C2=CN1C(CC(=O)O)C(=O)O (stereo unspecified)", "activity change, negative = cytotoxicity": "inactive"}
{"Molecule": "COC(=O)CC[C@H](NC(=O)[C@H](CC(C)C)NC(=O)OCc1ccccc1)C(=O)N[C@@H](Cc1cnc[nH]1)C(=O)N[C@@H](CC(=O)OC)C(=O)CF (Cbz-LE(OMe)HD(OMe)-CH2F)", "activity change, negative = cytotoxicity": "0.73% [at 11.6 µM] (inactive)"}
{"Molecule": "NC(=O)NCCCC(NC(=O)Cc1ccccc1)C(=O)O (stereo unspecified)", "activity change, negative = cytotoxicity": "inactive"}
{"Molecule": "CC1=C(CC/C(C)=C/C(=O)O)[C@@]2(C)CCCC(C)(C)C2CC1=O (stereo partly specified)", "activity change, negative = cytotoxicity": "inactive"}
